- Experimental Target: Human Serum Albumin (Homo sapiens, UniProt P02768)
- Sequence (P02768 25-609): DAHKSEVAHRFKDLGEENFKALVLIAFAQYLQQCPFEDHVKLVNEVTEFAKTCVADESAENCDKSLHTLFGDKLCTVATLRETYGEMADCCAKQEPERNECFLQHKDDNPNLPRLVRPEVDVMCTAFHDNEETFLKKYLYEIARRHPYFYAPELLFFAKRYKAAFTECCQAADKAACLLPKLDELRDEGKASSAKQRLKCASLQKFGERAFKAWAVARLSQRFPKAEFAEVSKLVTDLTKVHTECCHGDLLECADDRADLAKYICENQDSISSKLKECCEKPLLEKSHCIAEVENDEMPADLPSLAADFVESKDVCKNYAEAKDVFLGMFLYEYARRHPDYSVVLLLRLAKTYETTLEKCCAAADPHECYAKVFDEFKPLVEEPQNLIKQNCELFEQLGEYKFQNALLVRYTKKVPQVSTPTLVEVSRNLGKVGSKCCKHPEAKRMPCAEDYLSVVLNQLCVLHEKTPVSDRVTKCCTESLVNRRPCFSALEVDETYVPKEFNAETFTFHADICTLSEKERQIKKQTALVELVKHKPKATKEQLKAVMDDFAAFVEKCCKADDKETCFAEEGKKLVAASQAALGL
- Test Description: Biacore SPR, antibody variable domain peptides and antibodies against human serum albumin
- Assay type: binding
- Details: human; Biacore SPR, CM5 amine coupling, peptide over immobilized HSA and vice versa, pM-uM, 1:1 fit; read-out: Kinetic Binding Parameters Against Human Serum Albumin: KD
Ends that are not written are not given here.
Assay Readout: Kd
Reply with a number, then the unit it belongs to.

Name the recorded Kd for DTAVYYCAKYPHYYGSSHWYF [BVP1] .
2.37e+06 pM

----------
- Experimental Target: Human Serum Albumin (Homo sapiens, UniProt P02768)
- Test Description: Biacore SPR, antibody variable domain peptides and antibodies against human serum albumin
- Assay type: binding
- Details: human; Biacore SPR, CM5 amine coupling, peptide over immobilized HSA and vice versa, pM-uM, 1:1 fit; read-out: Kinetic Binding Parameters Against Human Serum Albumin: KD
Assay Readout: Kd (pM)
Response body: numeric value in pM, unit text excluded.

Name the recorded Kd for CC(C)[C@H](NC(=O)[C@H](CC(N)=O)NC(=O)[C@H](Cc1ccccc1)NC(=O)[C@H](Cc1ccc(O)cc1)NC(=O)[C@H](Cc1c[nH]c2ccccc12)NC(=O)[C@H](CC(=O)O)NC(=O)CNC(=O)CNC(=O)[C@H](Cc1ccc(O)cc1)NC(=O)[C@H](Cc1ccc(O)cc1)NC(=O)[C@@H](NC(=O)[C@H](CO)NC(=O)[C@H](CCCNC(=N)N)NC(=O)[C@H](C)NC(=O)[C@H](CS)NC(=O)[C@@H](N)Cc1ccc(O)cc1)[C@@H](C)O)C(=O)N[C@@H](Cc1c[nH]c2ccccc12)C(=O)NCC(=O)N[C@@H](C)C(=O)NCC(=O)O .
2.48e+06

----------
- Experimental Target: HSA Peptide 40 (Homo sapiens)
- Construct: HSA 40 (479-496); purchased New England Peptide (Gardner, MA, USA)
- Test Description: biochemical
- Format: binding
Ends that are not written are not given here.
Assay Readout: Kd
Reply with a number, then the unit it belongs to.

Name the recorded Kd for HYYGSSHWYFDVWGQ [Bevacizumab Heavy Chain 11] .
503 nM
